Every entry's value here was drawn from patent US12122778B2.

- targetOrSystem: PKR(R510Q) (Homo sapiens, UniProt P30613, R510Q)
- Sequence (P30613 whole entry R510Q): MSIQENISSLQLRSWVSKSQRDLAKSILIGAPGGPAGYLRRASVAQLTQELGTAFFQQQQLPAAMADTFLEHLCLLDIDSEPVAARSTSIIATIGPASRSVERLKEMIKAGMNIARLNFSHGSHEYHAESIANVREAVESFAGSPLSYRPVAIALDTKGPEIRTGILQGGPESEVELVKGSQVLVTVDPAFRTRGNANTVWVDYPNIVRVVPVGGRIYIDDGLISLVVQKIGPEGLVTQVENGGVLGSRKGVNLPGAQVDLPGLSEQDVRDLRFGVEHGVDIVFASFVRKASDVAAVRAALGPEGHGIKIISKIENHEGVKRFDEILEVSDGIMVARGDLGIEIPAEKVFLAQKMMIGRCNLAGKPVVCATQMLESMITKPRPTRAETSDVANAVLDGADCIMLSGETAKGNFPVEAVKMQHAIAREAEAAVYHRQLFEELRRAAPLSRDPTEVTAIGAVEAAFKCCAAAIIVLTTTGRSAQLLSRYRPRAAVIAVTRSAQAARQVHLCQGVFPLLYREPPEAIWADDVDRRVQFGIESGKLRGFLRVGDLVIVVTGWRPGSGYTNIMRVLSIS
- protocolDescription: Luminescence Biochemical Assay (Kinase Glo Plus), PKR R510Q mutant
- setupConditions: without FBP, read-out: AC50 LUM KGP woFBP MAX % FOLD mean
experimentalEndpoint: Emax

COc1ccc(CNC(=O)N2CC3=C(C2)CN(S(=O)(=O)c2cccc4cnccc24)C3)cc1; 75 to 250%
O=C(NCc1ccc(F)cc1)N1CC2=C(C1)CN(S(=O)(=O)c1ccc(F)cc1)C2; 250 to 500%
NS(=O)(=O)c1cccc(S(=O)(=O)N2CC3=C(CN(C(=O)[C@H](O)c4ccccc4)C3)C2)c1; 75 to 250%
CC(=O)Nc1cc(S(=O)(=O)N2CC3=C(CN(C(=O)[C@H](O)c4ccccc4)C3)C2)ccc1F; 75 to 250%
O=C(Cn1cnnn1)N1CC2=C(C1)CN(S(=O)(=O)c1cccnc1)C2; 75 to 250%
Cc1nc(CC(=O)N2CC3=C(C2)CN(S(=O)(=O)c2ccccn2)C3)cs1; 75 to 250%
O=C([C@H](O)c1ccccc1)N1CC2=C(C1)CN(S(=O)(=O)c1ccc(OC(F)F)cc1)C2; 250 to 500%
O=C([C@H](O)c1ccccc1)N1CC2=C(C1)CN(S(=O)(=O)c1cccc(C(F)(F)F)c1)C2; 75 to 250%
O=C(N1CCOCC1)N1CC2=C(C1)CN(S(=O)(=O)c1ccc3ncsc3c1)C2; 250 to 500%
O=C([C@H](O)c1ccccc1)N1CC2=C(C1)CN(S(=O)(=O)c1ccc(C(F)(F)F)nc1)C2; 75 to 250%

Recorded result, O=C(C(O)c1ccc(F)c(F)c1)N1CC2=C(C1)CN(S(=O)(=O)c1ccc(OC(F)F)cc1)C2 (centres unmarked) , Emax: 250 to 500%
